TGI values by entry
tested on: IGROV1 ovarian; test: NCI tumour cell line growth inhibition, 48 h
Where a SMILES comes first, the peptide text is derived from it. [ ]: non-standard residue; d: D form. The star is where a group is joined. ξ: configuration not given here. ξNMeF = CNC(Cc1ccccc1)C(=O)O; NMeV = CN[C@H](C(=O)O)C(C)C; Boc = CC(C)(C)OC(=O)*; OBn = c1ccc(CO*)cc1

Reference set (3 entries):
{"Compound": "c1ccc2sc(SSSc3nc4ccccc4s3)nc2c1", "Experimental Result": "> 100 µM"}
{"Compound": "COC(=O)/C=C/CCC#Cc1ccccc1C#CCC/C=C/C(=O)OC", "Experimental Result": "98.2 µM"}
{"Compound": "CCn1cc(CNc2ccc(C(=O)Nc3cc4cc(OC)c(OC)cc4c(C)n3)cc2)c(C)n1", "Experimental Result": "> 100 µM"}

The compound COC(=O)[C@@H]1CN(C(=O)CCc2ccccc2)C(=O)N1 , when measured on IGROV1 ovarian, yielded TGI of > 100 µM

# TGI measured on IGROV1 ovarian for item CC(C)[C@@H](C(=O)N(C)[C@H](C(=O)N1CCC[C@H]1C(=O)OCc1ccccc1)C(C)C)N(C)C(=O)C(Cc1ccccc1)N(C)C(=O)[C@H](NC(=O)OC(C)(C)C)C(C)C (stereo partly drawn) (Boc-[dV][ξNMeF][NMeV][NMeV]P-OBn) = > 31.6 µM

Observed TGI, IGROV1 ovarian, Cc1ccc(Sc2ccccc2C23OC(C)(C4C(=O)N(c5ccccc5)C(=O)C42)N(C)C3=O)cc1 (stereo not drawn) : > 100 µM

----------
tested on: BT-549 breast; assay: NCI tumour cell line growth inhibition, 48 h
Listing: TGI of selected compounds

Below, 4 compounds whose answers are already recorded.
{"Compound": "CCCC(=O)OCC1OC(n2cc(F)c(=O)[nH]c2=O)CC1O (stereo not given)", "Measure": "TGI", "Experimental Result": "> 10 µM"}
{"Compound": "NS(=O)(=O)c1ccc(N=Nc2ccc[nH]c2=O)cc1", "Measure": "TGI", "Experimental Result": "> 100 µM"}
{"Compound": "C/C(=C\\COP(=O)(O)OP(=O)(O)O)CCCCCCOCc1ccccc1", "Measure": "TGI", "Experimental Result": "> 100 µM"}
{"Compound": "O=C(O)CCC(c1ccccc1)(c1ccccc1)c1ccccc1", "Measure": "TGI", "Experimental Result": "> 100 µM"}

Record for CN(C)c1ccc(/C=C(\C#N)c2cc3ccccc3[nH]2)cc1 under target or system BT-549 breast: TGI reported as > 100 µM

----------
system: SK-OV-3 ovarian; assay: NCI tumour cell line growth inhibition, 48 h
Measure: TGI

Sample C[P+]1(Cc2ccccc2)CCCC1 ; TGI observed: > 100 µM

get_value(item= CSC1=NN(C(C)=O)C(C(OC(C)=O)C(OC(C)=O)C(OC(C)=O)C(COC(C)=O)OC(C)=O)S1 (configuration not stated) , readout=TGI) returns > 100 µM

Value of measured TGI for the entry COc1ccc2c(c1)CCc1c-2[nH]c2cc3c(cc2c1=O)OCO3 : > 100 µM

----------
system: NCI-H23 lung; assay: NCI tumour cell line growth inhibition, 48 h
Listed compounds paired with reported TGI

Observe how each entry below is paired with its result.
{"Compound": "CCO/C(O)=C(/C(=N)N1CCOCC1)C(=O)NC(C)C", "Experimental Result": "> 100 µM"}
{"Compound": "COc1cccc2c1C(=O)c1c(O)c3c(c(O)c1C2=O)C[C@@](O)(/C(CO)=N/NC(=O)CCCCCN1C(=O)C=CC1=O)C[C@@H]3O[C@H]1C[C@H](N)[C@H](O)[C@H](C)O1", "Experimental Result": "5.98 µM"}
{"Compound": "Nc1[nH]nc2nc(-c3cc(Cl)ccc3Cl)cc(-c3ccc(F)cc3)c12", "Experimental Result": "72.1 µM"}
{"Compound": "CCCCC(=O)N(c1ccc(Nc2c3ccccc3nc3cc([N+](=O)[O-])ccc23)cc1)S(C)(=O)=O", "Experimental Result": "42.5 µM"}
{"Compound": "O=C(c1cscc1CCc1ccccc1)c1cscc1CCc1ccccc1", "Experimental Result": "> 100 µM"}
{"Compound": "CCN(CC)CCNC(=O)c1cccc2c1-c1ccccc1C2=O", "Experimental Result": "> 100 µM"}
{"Compound": "CC(Br)CN1CCOCC1 (stereo unspecified)", "Experimental Result": "> 100 µM"}
{"Compound": "N#C/C(=C\\c1c(O)cc(O)cc1O)C(N)=O", "Experimental Result": "> 100 µM"}
{"Compound": "CC(=O)Nc1cc(Cl)cc(Cl)c1O", "Experimental Result": "> 100 µM"}
{"Compound": "COC(=O)[C@H](Cc1cn(C)cn1)NC(=O)[C@H](CC(=O)OCc1ccccc1)NC(=O)Nc1cc(C(F)(F)F)cc(C(F)(F)F)c1", "Experimental Result": "30.7 µM"}

The reported value for O=Cc1ccc2ccocc1-2 in terms of TGI is > 100 µM

// recorded TGI for O=C(OCc1ccccc1)C(Cc1ccc(OCc2ccccc2)cn1)NC(=O)C(F)(F)F (stereo unspecified) : > 100 µM

TGI in this record for COC(=O)[C@@H]1CN(C(=O)CCc2ccccc2)C(=O)N1 : > 100 µM

The compound identified as Cc1ccc(/C=N/NC(=O)c2ccccc2Oc2ccccc2)o1 registered its TGI at > 100 µM

Measured TGI of O/N=C(\CC(O)(C(F)(F)F)C(F)(F)F)c1cccs1 : > 10 µM

Per the record, COc1ccccc1-n1nnc2c(N)nc(N)nc21 has TGI of > 100 µM
